experimental.target: T1, gp100 (human)
T1 construct: cell surface;cell surface complex; also called HLA-A2 / gp100 peptide complex on T2 cells
assay.procedure: flow cytometry on peptide-pulsed T2 cells, scFv 100 nM;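 note: scFv binding read as gMFI and normalized to the level of HLA/peptide complex displayed on T2 cells, with homologous 9-mer peptides used to probe specificity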
value.kind: standardized gMFI

# example entries with known answers
[[record]]
binder = "NYA-2047 (scFv) scFv: GQVQLVESGGGVVQPGRSLRLSCAASGFSIRSYDMHWVRQAPGKGLEWVATISYDGSQKYYADSVKGRFTISRDNSKNTLYLQMSSLRAEDTAVYHCARGSSGHYEAFDIWGQGTLVTVSSGGGGSGGGGSGGGGSQSVLTQPPSVSAAPGQKVTISCSGSSSNIGNWYVSWYQQLPGTAPKLLIYDNNKRPSGIPDRFSGSKSGTSATLGITGLQTGDEADYYCGTWDSSLSAPWVFGGGTKVTVLGAAAGAGGDYKDDDDKGAAAHHHHHH"
experimental_value = 0.3

[[record]]
binder = "NYA-2023 (scFv) scFv: GEVQLVESGGGVVQPGRSLTPSCSASGFSIRSYDIHWVRQAPGKGLEWVATISYDGSQKYFADSVKGRFTIFRDESENMVYLQMSGLRVEDTAVYHCARGSSGHYEAFDIWGQGTMVTVSSGGGGSGGGGSGGGGSQSVLTQPPSVSAAPGQKVTISCSGSSSNIGNWYVSWYQQLPGTAPKLLIYDNNKRPSGIPDRFSGSKSGTSATLGITGLQTGDEADYYCGTWDSSLSAPWVFGGGTKVTVLGAAAGAGGDYKDDDDKGAAAHHHHHH"
experimental_value = 0.3

[[record]]
binder = "NYA-2143 (scFv) scFv: GEVQLVESGGGVVQPGRSLTPSCSASGFSIRSYDIHWVRLAPGKGLEWVATISYDGSQKYFADSVKGRFTIFRDESENMVYLQMSGLRVEDTAVYHCARGSSGHYEAFDIWGQGTMVTVSSGGGGSGGGGSGGGGSQSVLTQPPSVSAAPGQKVTISCSGSSSNIGNWYVSWYQRLPGTAPKLLIYDNNKRPSGIPDRFSGSKSGTSATLGITGLQTGDEADYYCGTWDSSLSAPWVFGGGTKVTVLGAAAGAGGDYKDDDDKGAAAHHHHHH"
experimental_value = 0.31

[[record]]
binder = "NYA-2061 (scFv, also called NYA-2061 tag adduct) scFv: GEVQLVESGGGLVQPGGSLRLSCAASGFSIRSYDIHWVRQAPGKGLEWVATISYDGSQKYYADSVKGRFTISRDESKNTLYLQMNSLRAEDTAVYHCARGSSGHYEAFDIWGQGTLVTVSSGGGGSGGGGSGGGGSQSVLTQPPSASGTPGQRVTISCSGSSSNIGNWYVSWYQQLPGTAPKLLIYDNNKRPSGVPDRFSGSKSGTSASLAISGLQSEDEADYYCGTWDSSLSAPWVFGGGTKLTVLGAAAGAGGDYKDDDDKGAAAHHHHHH"
experimental_value = 0.32

[[record]]
binder = "NYC-0004 (scFv, not shown: small tags and cut ends, also called T1 scFv; NYC-0004 tag adduct) scFv: EVQLLESGGGLVQPGGSLRLSCAASGFTFSTYQMSWVRQAPGKGLEWVSGIVSSGGSTAYADSVKGRFTISRDNSKNTLYLQMNSLRAEDTAVYYCAGELLPYYGMDVWGQGTTVTVSSGGGGSGGGGSGGGGSQSELTQPRSVSGSPGQSVTISCTGTERDVGGYNYVSWYQQHPGKAPKLIIHDVIERSSGVPDRFSGSKSGNTASLTISGLQAEDEADYYCWSFAGGYYVFGTGTDVTVL"
experimental_value = 0.32


Parameters: items (list). Returns: standardized gMFI for each item.
1. NYA-2044 (scFv, also called NYA-2044 tag adduct) scFv: GEVQLVESGGGLVQPGGSLRLSCAASGFSIRSYDIHWVRLAPGKGLEWVATISYDGSQKYYADSVKGRFTISRDESKNTLYLQMNSLRAEDTAVYHCARGSSGHYEAFDIWGQGTLVTVSSGGGGSGGGGSGGGGSQSVLTQPPSVSAAPGQKVTISCSGSSSNIGNWYVSWYQQLPGTAPKLLIYDNNKRPSGIPDRFSGSKSGTSATLGITGLQTGDEADYYCGTWDSSLSAPWVFGGGTKVTVLGAAAGAGGDYKDDDDKGAAAHHHHHH
2. NYA-2035 (scFv) scFv: GEVQLVESGGGVVQPGRSLTPSCSASGFSIRSYDIHWVRLAPGKGLEWVATISYDGSQKYFADSVKGRFTIFRDESENMVYLQMSGLRVEDTAVYHCARGSSGHYEAFDIWGQGTMVTVSSGGGGSGGGGSGGGGSQSVLTQPPSVSAAPGQKVTISCSGSSSNIGNWKVSWYQQLPGTAPKLLIYDNNKRPSGIPDRFSGSKSGTSATLGITGLQTGDEADYYCGTWDSSLSAPWVFGGGTKVTVLGAAAGAGGDYKDDDDKGAAAHHHHHH
3. NYA-2027 (scFv) scFv: GEVQLVESGGGVVQPGRSLTPSCSASGFSIRSYDIHWVRQAPGKGLEWVATISYDGSQKYFADSVKGRFTIFRDESENMVYLQMSGLRVEDTAVYHCARGSSGHYEAFDIWGQGTMVTVSSGGGGSGGGGSGGGGSQSVLTQPPSVSAAPGQKVTISCSGSSSNIGNNYVSWYQQLPGTAPKLLIYDNNKRPSGIPDRFSGSKSGTSATLGITGLQTGDEADYYCGSWDSSLSAPWVFGGGTKVTVLGAAAGAGGDYKDDDDKGAAAHHHHHH
4. NYA-2060 (scFv, also called NYA-2060 tag adduct) scFv: GEVQLVESGGGLVQPGGSLRLSCAASGFSIRSYDIHWVRQAPGKGLEWVATISYDGSQKYYADSVKGRFTISRDESKNTLYLQMNSLRAEDTAVYHCARGSSGHYEAFDIWGQGTLVTVSSGGGGSGGGGSGGGGSQSVLTQPPSVSAAPGQKVTISCSGSSSNIGNWYVSWYQQLPGTAPKLLIYDNNKRPSGIPDRFSGSKSGTSATLGITGLQTGDEADYYCGTWDSSLSAPWVFGGGTKVTVLGAAAGAGGDYKDDDDKGAAAHHHHHH

1. 0.32
2. 0.29
3. 0.31
4. 0.32
